// reported fold induction at 10 µM for each item listed
Test system: α7 integrin (LacZ reporter in α7βgal+/− myoblasts)
assay.method.text: Myoblast α7+/LacZ integrin FDG assay (Burkin assay in myoblasts, 96-well)
Type: cell-based, mouse
condition: Mus musculus, Myoblast, 48 h; 10 uM; α7+/LacZ myoblasts, 96-well; read-out: Burkin Assay in Myoblasts, value relative to DMSO

Below are worked cases with known answers.
compound	target.desc	fold induction at 10 µM
COCCn1c(=N)c(S(=O)(=O)c2ccc(Br)cc2)cc2c(=O)n3ccccc3nc21 [MLS001141113-01]	α7 integrin (LacZ reporter in α7βgal+/− myoblasts)	1.07
Cc1ccc(NC(=O)C2CCCCC2C(=O)O)cc1C (stereo not shown) [MLS000850824-01]	α7 integrin (LacZ reporter in α7βgal+/− myoblasts)	1.08
Cc1c(C(=O)N2CCCCC2)c(S(=O)(=O)Nc2cccc(Br)c2)c(C)n1C [MLS001096269-01]	α7 integrin (LacZ reporter in α7βgal+/− myoblasts)	1.03

Turning now to a further record.
Data request: Please give the measured fold induction at 10 µM for this compound: O=C(Nc1ccc(S(=O)(=O)Nc2nccs2)cc1)c1ccccc1OC(F)F [MLS002164687-01]
Data returned: 0.849
